system: Escherichia coli TOP10; test: shrunken log2 fold change of peptide-encoding DNA abundance (4.5 h post-induction vs induction); higher = less antimicrobial activity (less host growth inhibition); conditions: time post-induction: 4.5 h; library: site-saturation at positions 5, 18, 19, 20
Please enter true where shrunken log2 fold change is greater than or equal to 0.05, and false where it is lower.

Check out these entries, answers already filled in.
| Sequence Record | Discrete Label |
| --- | --- |
| RRIRMRPPRLPRPRPRPCLGPRP | true |
| RRIRVRPPRLPRPRPRPPELPRP | true |
| RRIRWRPPRLPRPRPRPPVAPRP | true |
| RRIRLRPPRLPRPRPRPRDCPRP | false |
| RRIRERPPRLPRPRPRPPLWPRP | true |
| RRIRMRPPRLPRPRPRPRMQPRP | true |

Ask | Answer whether shrunken log2 fold change of RRIRHRPPRLPRPRPRPEYIPRP is greater than or equal to 0.05.
Reply | false

Ask | Answer whether shrunken log2 fold change of RRIRLRPPRLPRPRPRPIHGPRP is greater than or equal to 0.05.
Reply | false

Ask | Answer whether shrunken log2 fold change of RRIRNRPPRLPRPRPRPNNMPRP is greater than or equal to 0.05.
Reply | false

Ask | Answer whether shrunken log2 fold change of RRIRNRPPRLPRPRPRPWYGPRP is greater than or equal to 0.05.
Reply | false

Ask | Answer whether shrunken log2 fold change of RRIRKRPPRLPRPRPRPNWCPRP is greater than or equal to 0.05.
Reply | false

Ask | Answer whether shrunken log2 fold change of RRIRYRPPRLPRPRPRPVAFPRP is greater than or equal to 0.05.
Reply | false

###

test system: Escherichia coli TOP10; assay: shrunken log2 fold change of peptide-encoding DNA abundance (4.5 h post-induction vs induction); higher = less antimicrobial activity (less host growth inhibition); conditions: time post-induction: 4.5 h; library: site-saturation at positions 5, 18, 19, 20
The recorded shrunken log2 fold change of each item maps onto one of these classes: bucket 1 = under -0.2, bucket 2 = from -0.2 up to 0.02, bucket 3 = 0.02 and over

Check out these entries, answers already filled in.
| Sequence Record | Discrete Label |
| --- | --- |
| RRIRGRPPRLPRPRPRPLKDPRP | bucket 3 |
| RRIRKRPPRLPRPRPRPFDVPRP | bucket 3 |

Ask | State the class of the sequence shown: RRIRCRPPRLPRPRPRPNYVPRP
Reply | bucket 1

Ask | State the class of the sequence shown: RRIRLRPPRLPRPRPRPMVIPRP
Reply | bucket 3

Ask | State the class of the sequence shown: RRIRKRPPRLPRPRPRPPHPPRP
Reply | bucket 3

Ask | State the class of the sequence shown: RRIRTRPPRLPRPRPRPTTKPRP
Reply | bucket 2

Ask | State the class of the sequence shown: RRIRMRPPRLPRPRPRPMNCPRP
Reply | bucket 2

Ask | State the class of the sequence shown: RRIRHRPPRLPRPRPRPQSHPRP
Reply | bucket 2

Ask | State the class of the sequence shown: RRIRPRPPRLPRPRPRPHTIPRP
Reply | bucket 1

Ask | State the class of the sequence shown: RRIRTRPPRLPRPRPRPWNMPRP
Reply | bucket 1

Ask | State the class of the sequence shown: RRIRIRPPRLPRPRPRPSCDPRP
Reply | bucket 3

Ask | State the class of the sequence shown: RRIRQRPPRLPRPRPRPVEFPRP
Reply | bucket 2

###

test system: Escherichia coli TOP10; assay: shrunken log2 fold change of peptide-encoding DNA abundance (4.5 h post-induction vs induction); higher = less antimicrobial activity (less host growth inhibition); details: time post-induction: 4.5 h; library: site-saturation at positions 5, 18, 19, 20
Please enter 1 where shrunken log2 fold change is greater than or equal to -0.09, and -1 where it is lower.

| Sequence Record | Discrete Label |
| --- | --- |
| RRIRKRPPRLPRPRPRPYFTPRP | -1 |
| RRIRNRPPRLPRPRPRPNCLPRP | -1 |
| RRIRNRPPRLPRPRPRPSERPRP | 1 |
| RRIRVRPPRLPRPRPRPCVFPRP | 1 |
| RRIRWRPPRLPRPRPRPPCTPRP | 1 |

Ask | Answer whether shrunken log2 fold change of RRIRERPPRLPRPRPRPDLAPRP is greater than or equal to -0.09.
Reply | 1

Ask | Answer whether shrunken log2 fold change of RRIRWRPPRLPRPRPRPGFMPRP is greater than or equal to -0.09.
Reply | 1

Ask | Answer whether shrunken log2 fold change of RRIRTRPPRLPRPRPRPEHDPRP is greater than or equal to -0.09.
Reply | 1

Ask | Answer whether shrunken log2 fold change of RRIRCRPPRLPRPRPRPYQDPRP is greater than or equal to -0.09.
Reply | -1

###

test system: Escherichia coli TOP10; assay: shrunken log2 fold change of peptide-encoding DNA abundance (4.5 h post-induction vs induction); higher = less antimicrobial activity (less host growth inhibition); settings: time post-induction: 4.5 h; library: site-saturation at positions 5, 18, 19, 20
Value Kind: shrunken log2 fold change
Give the figure only, with no unit attached.

Example entries and their recorded answers appear below.
| Sequence Record | shrunken log2 fold change |
| --- | --- |
| RRIRYRPPRLPRPRPRPIKWPRP | 0.0101 |
| RRIRQRPPRLPRPRPRPEDTPRP | -0.0122 |

Ask | Name the recorded shrunken log2 fold change of the item RRIRKRPPRLPRPRPRPLNHPRP in your answer.
Reply | -0.0528

Ask | Name the recorded shrunken log2 fold change of the item RRIRFRPPRLPRPRPRPIFNPRP in your answer.
Reply | -0.0984

Ask | Name the recorded shrunken log2 fold change of the item RRIRARPPRLPRPRPRPRIMPRP in your answer.
Reply | 0.121

Ask | Name the recorded shrunken log2 fold change of the item RRIRFRPPRLPRPRPRPKMDPRP in your answer.
Reply | -0.0752

###

Listing: shrunken log2 fold change of selected sequences
system: Escherichia coli TOP10; assay: shrunken log2 fold change of peptide-encoding DNA abundance (4.5 h post-induction vs induction); higher = less antimicrobial activity (less host growth inhibition); conditions: time post-induction: 4.5 h; library: site-saturation at positions 5, 18, 19, 20
Give the figure only, with no unit attached.

| Sequence Record | shrunken log2 fold change |
| --- | --- |
| RRIRGRPPRLPRPRPRPSRCPRP | -0.0851 |
| RRIRSRPPRLPRPRPRPLKLPRP | -0.15 |
| RRIRERPPRLPRPRPRPQMTPRP | -0.312 |
| RRIRPRPPRLPRPRPRPEEPPRP | 0.437 |
| RRIRERPPRLPRPRPRPMYHPRP | -0.594 |

Ask | Name the recorded shrunken log2 fold change of the item RRIRQRPPRLPRPRPRPIYPPRP in your answer.
Reply | -0.121

Ask | Name the recorded shrunken log2 fold change of the item RRIRSRPPRLPRPRPRPDSHPRP in your answer.
Reply | -0.36

###

tested on: Escherichia coli TOP10; assay: shrunken log2 fold change of peptide-encoding DNA abundance (4.5 h post-induction vs induction); higher = less antimicrobial activity (less host growth inhibition); settings: time post-induction: 4.5 h; library: site-saturation at positions 5, 18, 19, 20
Listing: shrunken log2 fold change of selected sequences
Give the figure only, with no unit attached.

| Sequence Record | shrunken log2 fold change |
| --- | --- |
| RRIRCRPPRLPRPRPRPAIKPRP | -0.738 |

Ask | Name the recorded shrunken log2 fold change of the item RRIRHRPPRLPRPRPRPRTVPRP in your answer.
Reply | 0.126

Ask | Name the recorded shrunken log2 fold change of the item RRIRVRPPRLPRPRPRPCIFPRP in your answer.
Reply | -0.0604

Ask | Name the recorded shrunken log2 fold change of the item RRIRARPPRLPRPRPRPMRTPRP in your answer.
Reply | 0.802

Ask | Name the recorded shrunken log2 fold change of the item RRIRNRPPRLPRPRPRPEMKPRP in your answer.
Reply | -0.188

Ask | Name the recorded shrunken log2 fold change of the item RRIRCRPPRLPRPRPRPPVAPRP in your answer.
Reply | 0.443

###

test system: Escherichia coli TOP10; experiment: shrunken log2 fold change of peptide-encoding DNA abundance (4.5 h post-induction vs induction); higher = less antimicrobial activity (less host growth inhibition); settings: time post-induction: 4.5 h; library: site-saturation at positions 5, 18, 19, 20;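 further: peptides expressed intracellularly from a pBAD plasmid library in pooled LB shake-flask culture, induced with 0.3% L-arabinose, DNA abundance read by NGS, three biological replicates, DESeq2 with apeglm shrinkage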
Please enter Met where shrunken log2 fold change is greater than or equal to -0.04, and Not met where it is lower.

Check out these entries, answers already filled in.
| Sequence Record | Measured On | Discrete Label |
| --- | --- | --- |
| RRIRKRPPRLPRPRPRPKEIPRP | Escherichia coli TOP10 | Met |
| RRIRFRPPRLPRPRPRPGVAPRP | Escherichia coli TOP10 | Met |
| RRIRSRPPRLPRPRPRPTWWPRP | Escherichia coli TOP10 | Met |
| RRIRNRPPRLPRPRPRPWLCPRP | Escherichia coli TOP10 | Met |
| RRIRTRPPRLPRPRPRPRFMPRP | Escherichia coli TOP10 | Not met |
| RRIRYRPPRLPRPRPRPSQHPRP | Escherichia coli TOP10 | Not met |
| RRIRIRPPRLPRPRPRPFMFPRP | Escherichia coli TOP10 | Not met |
| RRIRARPPRLPRPRPRPILDPRP | Escherichia coli TOP10 | Met |

Ask | Answer whether shrunken log2 fold change of RRIRCRPPRLPRPRPRPWLYPRP is greater than or equal to -0.04.
Reply | Not met

Ask | Answer whether shrunken log2 fold change of RRIRPRPPRLPRPRPRPEHHPRP is greater than or equal to -0.04.
Reply | Not met

Ask | Answer whether shrunken log2 fold change of RRIRNRPPRLPRPRPRPSRTPRP is greater than or equal to -0.04.
Reply | Met

Ask | Answer whether shrunken log2 fold change of RRIRSRPPRLPRPRPRPRWGPRP is greater than or equal to -0.04.
Reply | Met

Ask | Answer whether shrunken log2 fold change of RRIRFRPPRLPRPRPRPYFYPRP is greater than or equal to -0.04.
Reply | Not met

Ask | Answer whether shrunken log2 fold change of RRIRLRPPRLPRPRPRPRPVPRP is greater than or equal to -0.04.
Reply | Met

Ask | Answer whether shrunken log2 fold change of RRIRTRPPRLPRPRPRPDALPRP is greater than or equal to -0.04.
Reply | Met

Ask | Answer whether shrunken log2 fold change of RRIRIRPPRLPRPRPRPAVGPRP is greater than or equal to -0.04.
Reply | Met

Origin of measurements: the supplement of paper PMC9112550
